experiment: NCI Yeast Anticancer Drug Screen. Data for the mlh1 rad18 strain (AID 175); settings: S. cerevisiae mlh1 rad18 strain growth inhibition; at 50.0 µM; stronger effect = higher value
About 79,000 compounds went through this panel and 15% of them were active in at least one assay; those are over-represented in the sample as a whole.
Respond with TRUE for growth inhibition values of -10% and above, FALSE for values below.

Example cases with answers are listed next.
CCOC(=O)c1nc2ccc(C(F)(F)F)cc2nc1Nc1cc(OC)c(OC)c(OC)c1 = FALSE
CC(/C=N\Nc1ccc([N+](=O)[O-])cc1)=N/N=C(N)N = TRUE
Clc1cnnc2nc[nH]c12 = FALSE
c1ccc(C2OCC(OC3CCCCO3)CO2)cc1 (centres undefined) = TRUE
CC1(c2ccc(Cl)s2)NC(=O)NC1=O (centres undefined) = FALSE
CNc1ccc2c(c1)C(=O)c1ccccc1-2 = FALSE
O=C1CCC(=O)Nc2ccc3nc4ccccc4c(c3c2)SCCCCCCCCCCCCSc2c3ccccc3nc3ccc(cc23)N1 = TRUE
CCC(=O)Oc1ccc(C(=O)O)cc1 = TRUE

Check the entry Cc1cccc2c(=O)[nH]c(=O)[nH]c12 : does growth inhibition equal or exceed -10%?
FALSE
